Measured t1/2 values are reported for all entries that follow.
run description: Half life in mouse liver microsomes by in vitro metabolic stability assay
Format: ADME, Microsome
experimental setup: microsomes
Give the quantity in min, number only.

The cases that follow already have their t1/2 on record.
compound | unit tag | t1/2
CC(N)C1(c2ccc(Cl)c(Cl)c2)CCCCC1 (racemic) | min | 163
CC(N(C)C)C1(c2ccc(Cl)c(Cl)c2)CCCCC1 (single isomer, unassigned; enantiomer 1) | min | 25
CC(N(C)C)C1(c2ccc(Cl)c(Cl)c2)CCCCC1 (single isomer, unassigned) | min | 28
CC(N)C1(c2ccc3ccccc3c2)CCCCC1 (single isomer, unassigned) | min | 11

Here is another compound to look at.
# input What value of t1/2 has been reported for the following compound? CC(N)C1(c2ccc3ccccc3c2)CCCCC1 (single isomer, unassigned; enantiomer 2)
# output 14
